Recorded values, source paper PMC12471299.

Kindly state cell viability for each of the entries shown.
System: MDA-MB-231 breast cancer cells
MEASUREMENT_PROTOCOL: Cell viability assay (MTT)
Format: cell-based, human
SETUP_CONDITIONS: MDA-MB-231, 48 h, 10.0 µM
Experimental: Rat cardiomyocyte H9c2 cells were kindly provided by Prof. Dr. Gunhild von Amsberg from the Martini-Klinik Prostate Cancer Center, University Hospital Hamburg-Eppendorf, Hamburg, Germany. […] Compounds at concentrations up to 100 µM were added to the wells for 24h or 48 h, and the viability of the cells was measured using an MTT (3-(4,5-dimethylthiazol-2-yl)-2,5-diphenyltetrazolium bromide) assay, which was performed according to the manufacturer’s instructions (Sigma-Aldrich, Munich, Germany). […]

- COMPOUND: "Cc1c(C)c(O)c2c(c1C)C(C)(O)OC2=O (stereo not drawn) [Compound 3, sclerolide]"
  cell viability: "99.0 ± 5.1 % of control"

Each of the following entries comes with a recorded value; kindly state cell viability for each.
1. COc1c(OC)c(-c2c[nH]c3ccccc23)c(OC)c(OC)c1-c1c[nH]c2ccccc12 [Compound 7, asterriquinol D dimethyl ether]
2. COc1c(OC)c(-c2c[nH]c3ccc(O)cc23)c(OC)c(OC)c1-c1c[nH]c2ccccc12 [Compound 8, petromurin C]

["82.9 ± 6.3 % of control", "89.5 ± 3.1 % of control"]

Each of the following entries comes with a recorded value; kindly state cell viability for each.
1. C=C(C)C1CCC23C(O)CCC(C)C2(C)CCC(C)C3C1c1c[nH]c2ccccc12 (stereo not drawn) [Compound 5, 10,23-dihydro-24,25-dehydroaflavinine]
2. Cc1c(C)c(O)c2c(c1C)C(C)C(=O)OC2=O (stereo not drawn) [Compound 4, sclerin]
3. COC1=C(c2c[nH]c3ccccc23)C(=O)C(CC=C(C)C)=C(c2c[nH]c3ccccc23)C1=O [Compound 6, kumbicin D]

102.3 ± 4.1 % of control
91.8 ± 7.5 % of control
90.8 ± 1.2 % of control
